Hi there, I'd appreciate the recorded remaining activity at 100 µM for every entry that follows.
Biological target: undecaprenyl pyrophosphate synthase (UppS) (Escherichia coli)
Construct: gene ispU; N-terminal His6-tagged UppSEc
Assay: biochemical
Parameters: radiolabeled [14C]-IPP UppS assay, TLC quantification of [14C]-UPP; residual activity or IC50
Settings: read-out: % of control remaining
Protocol: The UppS enzymatic activity was determined by using a kinetics-based assay utilizing a radiolabeled substrate. The assay revolves on the measuring of UPP formation in the reaction mixture in a final volume of 40 μL. […] Residual activities (RAs) were calculated with respect to a control reaction without the tested compounds and with 5% DMSO. […] The 34 purchased compounds were tested for their inhibitory potencies against E. coli UppS using a radioactivity-based assay. […]
Sequence (P60472 whole entry): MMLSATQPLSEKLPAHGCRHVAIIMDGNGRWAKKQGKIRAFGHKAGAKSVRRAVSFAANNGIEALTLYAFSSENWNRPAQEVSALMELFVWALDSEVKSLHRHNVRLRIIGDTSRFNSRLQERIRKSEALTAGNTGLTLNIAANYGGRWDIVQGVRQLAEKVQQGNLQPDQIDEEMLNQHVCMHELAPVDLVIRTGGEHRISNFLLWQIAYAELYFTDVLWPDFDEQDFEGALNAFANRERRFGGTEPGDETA
Answers are plain numbers, in %.

Solved cases below.
[
  {
    "compound": "Cc1cccc(N2CCN(c3ccc(NC(=O)C(C)C)c(C(=O)O)c3)CC2)c1",
    "output_unit": "%",
    "remaining activity at 100 µM": 125
  },
  {
    "compound": "O=C(O)C1CC=CCC1C(=O)Nc1ccccc1C(=O)N1CCN(c2ccc(F)cc2)CC1 (centres unmarked)",
    "output_unit": "%",
    "remaining activity at 100 µM": 99
  },
  {
    "compound": "COc1ccc(C(=O)Nc2ccc(N3CCN(c4ccccc4F)CC3)cc2C(=O)O)cc1",
    "output_unit": "%",
    "remaining activity at 100 µM": 74
  },
  {
    "compound": "CCCn1cc(NC(=O)CNS(=O)(=O)c2cccc3c(N(C)C)cccc23)c(C(=O)O)c1",
    "output_unit": "%",
    "remaining activity at 100 µM": 85
  }
]

remaining activity at 100 µM on undecaprenyl pyrophosphate synthase (UppS) (Escherichia coli) for Cc1cc(C)n(CCCNc2ccc(C(=O)c3ccccc3C(=O)O)cc2[N+](=O)[O-])n1 is 92

---

Reported pIC50 for target or system undecaprenyl pyrophosphate synthase (UppS) (Escherichia coli), by entry.
Numbers only, as −log10 of the molar value.

Solved cases below.
[
  {
    "structure_smiles_string": "N#C/C(=C\\c1cccc(OCc2ccc(F)cc2)c1)C(=O)Nc1ccccc1C(=O)O",
    "pIC50": 4.60
  },
  {
    "structure_smiles_string": "N#C/C(=C\\c1cn(Cc2cccc3ccccc23)c2ccccc12)C(=O)Nc1ccccc1C(=O)O",
    "pIC50": 4.35
  }
]

Let's switch to this compound now.
pIC50 on undecaprenyl pyrophosphate synthase (UppS) (Escherichia coli) for O=C(CSc1nnc(-c2cc3ccccc3o2)n1-c1ccccc1)Nc1ccccc1C(=O)O is 4.62

---

Hi there, I'd appreciate the recorded remaining activity at 100 µM for every entry that follows.
Target: undecaprenyl pyrophosphate synthase (UppS) (Escherichia coli, UniProt P60472)
Construct: gene ispU; N-terminal His6-tagged UppSEc
Experiment: biochemical
Set-up: radiolabeled [14C]-IPP UppS assay, TLC quantification of [14C]-UPP; residual activity or IC50
Conditions: read-out: % of control remaining
Description: The UppS enzymatic activity was determined by using a kinetics-based assay utilizing a radiolabeled substrate. The assay revolves on the measuring of UPP formation in the reaction mixture in a final volume of 40 μL. […] Residual activities (RAs) were calculated with respect to a control reaction without the tested compounds and with 5% DMSO. […] The 34 purchased compounds were tested for their inhibitory potencies against E. coli UppS using a radioactivity-based assay. […]
One number for each entry, in %.

Solved cases below.
[
  {
    "molecule": "O=C(Nc1ccc(COCc2ccccc2)cc1)c1ccnc(C(=O)O)c1",
    "target_under_test": "undecaprenyl pyrophosphate synthase (UppS) (Escherichia coli, UniProt P60472)",
    "remaining activity at 100 µM, %": 93
  },
  {
    "molecule": "CCCc1ccc(S(=O)(=O)Nc2ccc(N3CCN(C4CCCCC4)CC3)cc2C(=O)O)cc1",
    "target_under_test": "undecaprenyl pyrophosphate synthase (UppS) (Escherichia coli, UniProt P60472)",
    "remaining activity at 100 µM, %": 113
  },
  {
    "molecule": "O=C(O)c1cccc(C(=O)NCCc2nc3ccccc3n2C(F)F)c1",
    "target_under_test": "undecaprenyl pyrophosphate synthase (UppS) (Escherichia coli, UniProt P60472)",
    "remaining activity at 100 µM, %": 168
  },
  {
    "molecule": "CC(=O)c1ccc(NC(=O)C(Sc2ccc(NC(=O)c3ccccc3C(=O)O)cc2)c2ccccc2)cc1 (stereo not shown)",
    "target_under_test": "undecaprenyl pyrophosphate synthase (UppS) (Escherichia coli, UniProt P60472)",
    "remaining activity at 100 µM, %": 101
  }
]

Each of the following entries comes with a recorded value; kindly state remaining activity at 100 µM for each.
1. Cc1sc(NC(=O)c2ccccc2C(=O)O)nc1-c1ccc(-c2ccccc2)cc1
2. O=C(O)CCC(NC(=O)C(=Cc1cn(-c2ccccc2)nc1-c1cccnc1)NC(=O)c1ccccc1)C(=O)O (stereo not shown)

1: 120; 2: 92

Entry source: paper PMC6339874
